- Test system: Septoria tritici
- ASSAY_DETAILS: Fungicidal activity: leaf blotch of wheat, one-day protectant and three-day curative tests on wheat plants
- Format: in vivo
- CONDITION_LABEL: Zymoseptoria tritici, 72 h; Three-Day Curative (3 DC), 100 ppm, wheat plants (variety Yuma); read-out: SEPTTR 100 PPM 3 DC (% Disease Control rating)
So I've got a bunch of compounds here, and I need their pest or weed control at 100 ppm values.

C/N=c1\c(F)cn(S(=O)(=O)C2CC2)c(=O)n1C : 51 to 75%

Hi there! I need pest or weed control at 100 ppm for each item below, if you can.
1. C/N=c1\c(F)cn(S(=O)(=O)c2cccc(C)c2)c(=O)n1C
2. C/N=c1\c(F)cn(S(=O)(=O)c2ccc(OC)c(F)c2)c(=O)n1C

["0 to 25%", "76 to 100%"]

Please look at the items below and tell me pest or weed control at 100 ppm for each one, in order.
1. C/N=c1\c(F)cn(S(=O)(=O)c2cn(C)nc2C)c(=O)n1C
2. CC(=O)/N=c1\c(F)cn(S(=O)(=O)c2ccc(C)cc2)c(=O)n1C

1. 76 to 100%
2. 76 to 100%
